B1: tRNA (parent)
chain: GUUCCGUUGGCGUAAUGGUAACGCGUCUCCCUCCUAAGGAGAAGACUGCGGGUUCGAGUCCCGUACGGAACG

Variants of: B1
Assay: yeast fitness relative to wild type (ratio to wild type); higher = fitter; tRNA-Arg(CCU), competitive growth, 37 C, YPD
Variants at the floor of the assay were thinned out.
What yeast fitness was measured for each of the following?
One number for each entry.

| mutant name | recorded endpoint | result value |
| --- | --- | --- |
| U13G G18A A20U C31G | yeast fitness | 0.566 |
| C27G A40G | yeast fitness | 0.594 |
| C27U C33G C34G G44A G50A G52A | yeast fitness | 0.558 |
| U7A C11G C27U A37C G51C G67U | yeast fitness | 0.504 |
| C22U C49G U53A | yeast fitness | 0.558 |

Give measured yeast fitness for every item shown.
1. U8A A20C U35A G38C A69U
2. G9A A21G C62U G63C A70C
3. C30A G50C
4. C11U G44A C49U
5. C49U A57G
6. A21C G67A
7. U7C A20U A40C C46U C55G A70U
8. G18C A42U U54A G58C

1. 0.597
2. 0.52
3. 0.594
4. 0.81
5. 0.865
6. 0.8
7. 0.582
8. 0.574
